- System: mesenteric artery
- procedure_summary: Relaxation of Mesenteric Artery (isolated rabbit mesenteric artery contracted with KCl)
- details: Oryctolagus cuniculus, concentration for 50% relaxation, KCl 15~20 mM contraction, read-out: Relaxation of Mesenteric Artery ED50
Please go through the items and note down their EC50.
Give bare numbers, in µM.

Answered cases to consult:
NCCCCCCNS(=O)(=O)c1ccc2ncnc(N3CCCCC3)c2c1 ... 24
NCCCCNS(=O)(=O)c1ccc2ncnc(N3CCCCC3)c2c1 ... 21
CCCCCCN(CCCCCC)c1ncnc2ccc(S(=O)(=O)NCCCCN)cc12 ... 12
CC(C)COC(CN1CCN(S(=O)(=O)c2ccc3ncnc(N4CCCCC4)c3c2)CC1)c1ccccc1 (centres unmarked) ... 10.7
CCOC(CN1CCN(S(=O)(=O)c2ccc3ncnc(NCc4ccccc4)c3c2)CC1)c1ccccc1 (centres unmarked) ... 3.2
CCCCN(CCCC)c1ncnc2ccc(S(=O)(=O)NCCCCN)cc12 ... 8
CCOC(CN1CCN(S(=O)(=O)c2ccc3ncnc(N(C)c4ccccc4)c3c2)CC1)c1ccccc1 (centres unmarked) ... 2.2
CC(C)COC(CN1CCN(S(=O)(=O)c2ccc3ncnc(N(C)C4CCCCC4)c3c2)CC1)c1ccccc1 (centres unmarked) ... 1.3

Give one value of EC50 per listed molecule.
1. NCCCNS(=O)(=O)c1ccc2ncnc(N3CCCCC3)c2c1
2. CCOC(CN1CCN(S(=O)(=O)c2ccc3ncnc(N(C)C4CCCCCC4)c3c2)CC1)c1ccccc1 (centres unmarked)

Result:
1. 30
2. 3.7
